Test system: P. falciparum 3D7 growth, pLDH absorbance
Experiment: blood-stage malaria parasite growth potency – strain 3D7, dose response (AID 2305)
VALUE KIND: IC50 (nM)

* CC(=O)Nc1ccc2[nH]cc(C3CCN(CC4CCN(C(=O)/C=C/c5ccc(Cl)c(Cl)c5)CC4)CC3)c2c1 | 720
* CCc1c(C)nc(-n2nc(C)cc2NC(=O)c2ccc(OC)cc2OC)[nH]c1=O | 830
* CC(=O)c1ccc(-n2ccnc2)cc1 | 850
* Nc1c2c(nc3ccc(NC(=O)CCCCCc4ccccc4)cc13)CCCC2 | 440
* CCCN1CCN(CCCNc2c3ccccc3nc3ccccc23)CC1 | 550
* CC(=O)Nc1cc(C(=O)Nc2cccc(-c3cccc(-c4nc5ccc(C(F)(F)F)cc5[nH]4)c3)c2)ccc1C | 220
* COc1ccc2nccc(N3CCC(NCc4ccc5c(n4)NC(=O)CS5)CC3)c2n1 | 860
* Cc1cc(N2CCCCC2)nc2ccc(NC(=O)c3cc(=O)c4ccccc4o3)cc12 | 720
* NC(=Nc1nc(-c2ccccn2)cc2ccccc12)c1cccc(Cl)c1 | 310
* COc1ccc2cc(-c3nc(-c4c(Cl)cccc4Cl)[nH]c3-c3ccnc(NCCCN4CCCCC4C)c3)ccc2c1 (centres undefined) | 950
* c1ccc(-c2nc(Nc3nc4ccccc4[nH]3)[nH]c2-c2ccccc2)cc1 | 620
* CC(C)CN1C(=O)c2ccc(C(=O)Nc3nccs3)cc2C1=O | 970
* O=C(Nc1ccc(OC2CCN(Cc3ccc(F)cc3)C2)c(Cl)c1)c1ccccc1 (centres undefined) | 790
* COc1ccc2ccc(F)c(CC(=O)N3CCOC(CNCc4cccc(-c5ccc(F)cc5)n4)C3)c2n1 (centres undefined) | 1010
* CC(=O)c1cccc2c(NC(=O)Nc3ccc4nccc(N5CCN(C)CC5)c4c3)cccc12 | 400
* COc1cc(CN2CCC(C(=O)Nc3ccc(-c4cccc(C)c4)cc3)CC2)ccc1O | 1120
* Cc1cccc2[nH]c(-c3cccc(-c4cccc(NC(=O)c5ccoc5)c4)c3)nc12 | 220
* Cc1cc2nc(-c3ccc(OCC(=O)NCc4cccc(C(F)(F)F)c4)cc3)[nH]c2cc1C | 990
* Cc1cc2c(cc1C(F)(F)F)N(C(=O)Nc1cc(OCCN(C(C)C)C(C)C)cc(C(F)(F)F)c1)CC2 | 260
